Target: Protein kinase C eta type (Homo sapiens, UniProt P24723)
Sequence (P24723 whole entry): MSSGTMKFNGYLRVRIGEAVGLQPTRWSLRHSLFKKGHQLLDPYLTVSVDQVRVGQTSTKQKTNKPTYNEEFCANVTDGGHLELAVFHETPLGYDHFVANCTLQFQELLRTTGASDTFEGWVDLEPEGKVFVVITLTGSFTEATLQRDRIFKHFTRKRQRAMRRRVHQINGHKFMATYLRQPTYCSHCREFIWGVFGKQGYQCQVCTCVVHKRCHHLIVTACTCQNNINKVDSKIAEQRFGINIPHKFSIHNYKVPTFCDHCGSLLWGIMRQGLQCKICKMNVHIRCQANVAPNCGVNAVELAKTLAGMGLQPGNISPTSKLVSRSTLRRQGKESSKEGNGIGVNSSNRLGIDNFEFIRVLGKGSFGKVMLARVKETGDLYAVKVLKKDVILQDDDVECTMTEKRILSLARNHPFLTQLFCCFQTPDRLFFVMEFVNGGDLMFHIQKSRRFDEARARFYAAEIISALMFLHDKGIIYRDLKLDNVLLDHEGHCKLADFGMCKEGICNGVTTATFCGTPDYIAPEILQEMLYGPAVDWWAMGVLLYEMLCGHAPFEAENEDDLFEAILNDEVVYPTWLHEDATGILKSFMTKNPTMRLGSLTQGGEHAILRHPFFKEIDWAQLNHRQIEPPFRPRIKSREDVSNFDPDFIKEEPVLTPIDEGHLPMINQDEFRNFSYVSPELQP
Experiment: Evaluated against recombinant human Protein kinase C eta
readout.name: IC50 (nM)

{"molecule": "Cc1ccc(S(=O)(=O)N2CCC[C@@H](OC(=O)c3cc(O)c(C(=O)c4c(O)cccc4C(=O)O)c(O)c3)[C@H](NC(=O)c3ccc(O)cc3)C2)cc1", "unit.of.measure": "nM", "recorded.value": 100}

P: O=C(NC(COC(=O)c1cc(O)c(C(=O)c2c(O)cccc2C(=O)O)c(O)c1)Cc1ccc(O)cc1)c1ccc(O)cc1 (centres undefined)
Q: O=C(OCC(COc1ccc(O)cc1)NS(=O)(=O)c1ccccc1)c1cc(O)c(C(=O)c2c(O)cccc2C(=O)O)c(O)c1 (centres undefined)
[Q] Higher IC50 between P and Q ? // output: label of the selected item
[A] P

---

Target: UniProt:P05771
Sequence (P05771 whole entry): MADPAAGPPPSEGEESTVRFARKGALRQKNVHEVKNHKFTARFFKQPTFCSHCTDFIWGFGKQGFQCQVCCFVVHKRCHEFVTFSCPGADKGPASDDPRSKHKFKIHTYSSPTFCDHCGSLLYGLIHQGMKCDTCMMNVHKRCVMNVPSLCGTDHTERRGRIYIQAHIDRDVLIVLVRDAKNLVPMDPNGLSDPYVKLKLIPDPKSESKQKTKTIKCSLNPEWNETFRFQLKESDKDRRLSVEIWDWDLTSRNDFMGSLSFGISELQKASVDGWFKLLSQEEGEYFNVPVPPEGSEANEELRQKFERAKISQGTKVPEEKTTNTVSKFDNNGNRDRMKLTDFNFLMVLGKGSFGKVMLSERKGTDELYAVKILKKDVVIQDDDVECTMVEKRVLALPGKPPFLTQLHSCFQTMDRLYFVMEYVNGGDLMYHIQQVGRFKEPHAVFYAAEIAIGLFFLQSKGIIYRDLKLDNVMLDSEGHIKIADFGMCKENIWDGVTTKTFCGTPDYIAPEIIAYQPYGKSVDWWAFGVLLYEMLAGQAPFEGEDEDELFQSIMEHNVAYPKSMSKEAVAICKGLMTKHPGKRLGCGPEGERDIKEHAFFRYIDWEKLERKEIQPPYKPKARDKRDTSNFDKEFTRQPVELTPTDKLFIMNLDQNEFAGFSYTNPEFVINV
Test: Evaluated against recombinant human Protein kinase C beta 1
pIC50: −log10 of the molar value.
readout.name: pIC50

Some solved entries appear below for comparison.
{"molecule": "O=C(NCCOC(=O)c1cc(O)c(C(=O)c2c(O)cccc2C(=O)O)c(O)c1)c1ccc(O)cc1", "system.under.test": "UniProt:P05771", "recorded.value": 5.35}
{"molecule": "O=C(NC(COC(=O)c1cc(O)c(C(=O)c2c(O)cccc2C(=O)O)c(O)c1)Cc1ccc(O)cc1)c1ccc(O)cc1 (stereo not drawn)", "system.under.test": "UniProt:P05771", "recorded.value": 5.44}
{"molecule": "O=C(NC1CNCCCC1OC(=O)c1cc(O)c(C(=O)c2c(O)cccc2C(=O)O)c(O)c1)c1ccc(O)cc1 (racemic)", "system.under.test": "UniProt:P05771", "recorded.value": 7.52}
{"molecule": "O=C(OC[C@@H](Cc1ccc(O)cc1)NS(=O)(=O)c1ccccc1)c1cc(O)c(C(=O)c2c(O)cccc2C(=O)O)c(O)c1", "system.under.test": "UniProt:P05771", "recorded.value": 7.52}

1: CS(=O)(=O)NC(COC(=O)c1cc(O)c(C(=O)c2c(O)cccc2C(=O)O)c(O)c1)Cc1ccc(O)cc1 (stereo not drawn)
2: O=C(OC1CCCC1Oc1ccc(O)cc1)c1cc(O)c(C(=O)c2c(O)cccc2C(=O)O)c(O)c1 (stereo not drawn)
3: Cc1ccc(S(=O)(=O)N2CCC[C@@H](OC(=O)c3cc(O)c(C(=O)c4c(O)cccc4C(=O)O)c(O)c3)[C@H](NC(=O)c3ccc(O)cc3)C2)cc1
4: O=C(OCC(Cc1ccc(O)cc1)NS(=O)(=O)c1ccc2ccccc2c1)c1cc(O)c(C(=O)c2c(O)cccc2C(=O)O)c(O)c1 (stereo not drawn)
[Q] Ordering criterion: pIC50; begin with the maximum. List the labels in the requested order.
[A] 2, 3, 1, 4

---

Target: Protein kinase C delta type (Homo sapiens, UniProt Q05655)
Sequence (Q05655 whole entry): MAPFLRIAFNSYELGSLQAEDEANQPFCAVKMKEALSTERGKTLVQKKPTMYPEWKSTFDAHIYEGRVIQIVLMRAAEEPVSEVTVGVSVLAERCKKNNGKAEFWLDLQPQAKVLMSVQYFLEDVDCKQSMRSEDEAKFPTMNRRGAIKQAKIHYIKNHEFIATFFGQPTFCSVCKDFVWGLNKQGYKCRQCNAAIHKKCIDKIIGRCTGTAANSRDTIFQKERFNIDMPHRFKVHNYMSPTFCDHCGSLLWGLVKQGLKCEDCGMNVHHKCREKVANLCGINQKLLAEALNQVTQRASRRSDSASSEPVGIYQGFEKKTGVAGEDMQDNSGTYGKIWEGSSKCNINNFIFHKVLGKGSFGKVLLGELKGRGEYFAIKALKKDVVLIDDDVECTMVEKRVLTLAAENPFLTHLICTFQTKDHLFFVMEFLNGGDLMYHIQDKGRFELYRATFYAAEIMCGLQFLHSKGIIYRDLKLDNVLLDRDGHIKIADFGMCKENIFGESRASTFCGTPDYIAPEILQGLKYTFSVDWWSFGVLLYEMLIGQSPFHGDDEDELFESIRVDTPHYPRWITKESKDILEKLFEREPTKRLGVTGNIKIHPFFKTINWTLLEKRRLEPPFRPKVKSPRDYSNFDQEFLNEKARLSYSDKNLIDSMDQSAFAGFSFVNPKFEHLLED
Experiment: Evaluated against recombinant human Protein kinase C delta
pIC50: −log10 of the molar value.
readout.name: pIC50

Worked cases, answers included:
{"compound": "O=C(OCCCc1ccc(O)cc1)c1cc(O)c(C(=O)c2c(O)cccc2C(=O)O)c(O)c1", "pIC50": 6.89}
{"compound": "CN(C)C(COC(=O)c1cc(O)c(C(=O)c2c(O)cccc2C(=O)O)c(O)c1)Cc1ccc(O)cc1 (stereo not given)", "pIC50": 6.57}
{"compound": "O=C(OCCCCc1ccc(O)cc1)c1cc(O)c(C(=O)c2c(O)cccc2C(=O)O)c(O)c1", "pIC50": 6.54}
{"compound": "O=C(OCC(COc1ccc(O)cc1)NS(=O)(=O)c1ccccc1)c1cc(O)c(C(=O)c2c(O)cccc2C(=O)O)c(O)c1 (stereo not given)", "pIC50": 6.66}
{"compound": "O=C(OC[C@@H](Cc1ccc(O)cc1)NS(=O)(=O)c1ccccc1)c1cc(O)c(C(=O)c2c(O)cccc2C(=O)O)c(O)c1", "pIC50": 8.52}
{"compound": "COC(=O)c1cccc(O)c1C(=O)c1c(O)cc(C(=O)OC[C@@H](Cc2ccc(O)cc2)NS(=O)(=O)c2ccccc2)cc1O", "pIC50": 6.44}
{"compound": "COC(=O)c1cccc(O)c1C(=O)c1c(O)cc(C(=O)OC2CCCC2Cc2ccc(O)cc2)cc1O (stereo not given)", "pIC50": 7.30}
{"compound": "O=C(OCC(Cc1ccc(O)cc1)NS(=O)(=O)c1ccc2ccccc2c1)c1cc(O)c(C(=O)c2c(O)cccc2C(=O)O)c(O)c1 (stereo not given)", "pIC50": 5.59}
{"compound": "O=C(NC(COC(=O)c1cc(O)c(C(=O)c2c(O)cccc2C(=O)O)c(O)c1)Cc1ccc(O)cc1)c1ccccc1 (stereo not given)", "pIC50": 4.66}
{"compound": "COC(=O)c1cccc(O)c1C(=O)c1c(O)cc(C(=O)OC2CNCC2Cc2ccc(O)cc2)cc1O (stereo not given)", "pIC50": 7.00}

P: O=C(OCC(Cc1ccc(O)cc1)NS(=O)(=O)c1ccccc1)c1cc(O)c(C(=O)c2c(O)cccc2C(=O)O)c(O)c1 (stereo not given)
Q: O=C(NCCOC(=O)c1cc(O)c(C(=O)c2c(O)cccc2C(=O)O)c(O)c1)c1ccc(O)cc1
[Q] Param metric = pIC50; output whichever of P , Q has the minimum value. Reply briefly: the label of your chosen item.
[A] Q

1: O=C(NC1CNCCCC1OC(=O)c1cc(O)c(C(=O)c2c(O)cccc2C(=O)O)c(O)c1)c1ccc(O)cc1 (racemic)
2: COC(=O)c1cccc(O)c1C(=O)c1c(O)cc(C(=O)OCCCc2ccc(O)cc2)cc1O
[Q] Looking at recorded values for pIC50, does 1 or 2 come in lower? Output the label that corresponds to your choice.
[A] 2

1: Cc1ccc(S(=O)(=O)N2CCC[C@@H](OC(=O)c3cc(O)c(C(=O)c4c(O)cccc4C(=O)O)c(O)c3)[C@H](NC(=O)c3ccc(O)cc3)C2)cc1
2: O=C(NC1CCCC1OC(=O)c1cc(O)c(C(=O)c2c(O)cccc2C(=O)O)c(O)c1)c1ccc(O)cc1 (stereo not given)
[Q] Of 1 and 2 , whose reported pIC50 is numerically smaller? Pick one and reply with its label.
[A] 1

A: O=C(NC(COC(=O)c1cc(O)c(C(=O)c2c(O)cccc2C(=O)O)c(O)c1)Cc1ccc(O)cc1)c1ccc(O)cc1 (stereo not given)
B: O=C(OC[C@H](Cc1ccc(O)cc1)NS(=O)(=O)c1ccccc1)c1cc(O)c(C(=O)c2c(O)cccc2C(=O)O)c(O)c1
C: O=C(OC1CNCC1Cc1ccc(O)cc1)c1cc(O)c(C(=O)c2c(O)cccc2C(=O)O)c(O)c1 (stereo not given)
D: CS(=O)(=O)NC(COC(=O)c1cc(O)c(C(=O)c2c(O)cccc2C(=O)O)c(O)c1)Cc1ccc(O)cc1 (stereo not given)
[Q] Order by pIC50, ascending. Please list the labels according to the requested order.
[A] A, D, B, C
